- Tested on: OVCAR-5 ovarian
- measurement.description: NCI-60 one-dose screen, 48 h (100 = growth as untreated, 0 = no growth, -100 = all killed)
- details: 10 µM
Compounds without any hit were thinned out: in the full panel of roughly 83,000, 20% have a hit.
Record form. Attribute: growth. Fill in for each entry.
Answers are plain numbers, in %.

COc1cc(-c2nc3ccccc3o2)cc(CN2CCCCC2)c1O : 110
C#C[C@]1(O)CCC2C3CCc4cc(OC5CCCC5)ccc4C3CC[C@@]21C (stereo not given in full) : 63.2
C=CCn1c(SCC(=O)Nc2ccc(C(=O)/C=C/c3ccc(Cl)cc3)cc2)nnc1-c1cc(-c2ccccc2)nc2ccccc12 : 90.4
CN(C)c1ncnc2c1nnn2C1OC(CO)C(O)C1O (stereo not given) : 26.8

Then this molecule:
// fetch growth given entry COC(=O)C1(O)NC(=C(C#N)C#N)C(C#N)=C1C(=O)c1ccc(OC)c(OC)c1 (stereo not given)
111

The reported numbers originate from PubChem BioAssay (NCI).
